- Tested on: P388
- protocol notes: In vivo cytotoxicity against mouse P388 cells
- Type: functional, organism-based
Calls of active or inactive are those of the source. The calls are words filed in the database; no cut-off is given here.
quantity: Activity

Use the examples below as a reference point.
{"molecule": "CC1(C)CCC[C@]2(C)C3=C(COC3=O)[C@H](O)C[C@@H]12", "Activity": "inactive"}
{"molecule": "CC(=O)O[C@@H]1CC2=C(C(=O)OC2)[C@@]2(C)CCCC(C)(C)[C@H]12", "Activity": "inactive"}
{"molecule": "CC(=O)O[C@@H]1C=C(C=O)[C@](O)(C=O)[C@@]2(C)CCCC(C)(C)[C@H]12", "Activity": "inactive"}
{"molecule": "CC(=O)O[C@@H]1C=C2C(=O)OC[C@]2(O)[C@@]2(C)CCCC(C)(C)[C@H]12 [CINNAMOSMOLIDE]", "Activity": "inactive"}

Entry "CC(=O)O[C@@H]1[C@@H](O)C2=C(C(=O)OC2)[C@@]2(C)CCCC(C)(C)[C@H]12" has what Activity?
inactive

Hey, just so you know, these numbers are from ChEMBL document CHEMBL1151344.
